Test: in vitro
Details: human
Catalogue of cytotoxicity at 10 µM values
Report as a plain number; the unit % is understood.

These recorded examples may help you get a feel for the data.
>  <smiles_notation>
C[C@H]1CCC[C@@H](O)CCCCCc2cc(O)cc(O)c2C(=O)O1

>  <cytotoxicity at 10 µM, %>
9.6

$$$$
>  <smiles_notation>
C[C@H]1CCCC(=O)CCCCCc2cc(O)cc(O)c2C(=O)O1

>  <cytotoxicity at 10 µM, %>
13.2

$$$$
>  <smiles_notation>
C[C@H]1CCC[C@H](O)CCC/C=C/c2cc(O)cc(O)c2C(=O)O1

>  <cytotoxicity at 10 µM, %>
5.5

$$$$
>  <smiles_notation>
C[C@H]1CCC[C@@H](O)CCC/C=C/c2cc(O)cc(O)c2C(=O)O1

>  <cytotoxicity at 10 µM, %>
19.7

$$$$

Could you now look at the following compound, please?
Qu. So what does the record say about cytotoxicity at 10 µM for `C[C@H]1CCC[C@H](O)CCCCCc2cc(O)cc(O)c2C(=O)O1` ?
Ans. 1.9

----------
System: HeLa cells
Assay: in vitro
Conditions: HeLa, 24 h, 30 µM of the compound + 20 µM ZEN
assay_readout: Combined Cytotoxic Effect (grade symbol)

Below: 4 compounds and their reported Combined Cytotoxic Effect (grade symbol).
>  <smiles_notation>
C[C@H]1CCCC(=O)CCCCCc2cc(O)cc(O)c2C(=O)O1

>  <Combined Cytotoxic Effect (grade symbol)>
+ (0.60 < CI < 0.80: +)

$$$$
>  <smiles_notation>
C[C@H]1CCC[C@@H](O)CCC/C=C/c2cc(O)cc(O)c2C(=O)O1

>  <Combined Cytotoxic Effect (grade symbol)>
± (0.80 < CI < 1.20: ±)

$$$$
>  <smiles_notation>
C[C@H]1CCC[C@H](O)CCCCCc2cc(O)cc(O)c2C(=O)O1

>  <Combined Cytotoxic Effect (grade symbol)>
+ (0.60 < CI < 0.80: +)

$$$$
>  <smiles_notation>
C[C@H]1CCC[C@@H](O)CCCCCc2cc(O)cc(O)c2C(=O)O1

>  <Combined Cytotoxic Effect (grade symbol)>
+ (0.60 < CI < 0.80: +)

$$$$

Okay, now this compound:
Qu. Under HeLa cells: Combined Cytotoxic Effect (grade symbol) value of `C[C@H]1CCC[C@H](O)CCC/C=C/c2cc(O)cc(O)c2C(=O)O1` ?
Ans. ± (0.80 < CI < 1.20: ±)

----------
Tested on: HeLa cells
Assay: in vitro
Details: HeLa, 24 h, 10 µM of the compound + 20 µM ZEN
assay_readout: Combined Cytotoxic Effect (grade symbol)

As a guide, the following entries are already answered.
>  <smiles_notation>
C[C@H]1CCC[C@@H](O)CCC/C=C/c2cc(O)cc(O)c2C(=O)O1

>  <Combined Cytotoxic Effect (grade symbol)>
+ (0.60 < CI < 0.80: +)

$$$$
>  <smiles_notation>
C[C@H]1CCCC(=O)CCCCCc2cc(O)cc(O)c2C(=O)O1

>  <Combined Cytotoxic Effect (grade symbol)>
++ (CI < 0.60: ++)

$$$$
>  <smiles_notation>
C[C@H]1CCC[C@H](O)CCC/C=C/c2cc(O)cc(O)c2C(=O)O1

>  <Combined Cytotoxic Effect (grade symbol)>
++ (CI < 0.60: ++)

$$$$
>  <smiles_notation>
C[C@H]1CCC[C@@H](O)CCCCCc2cc(O)cc(O)c2C(=O)O1

>  <Combined Cytotoxic Effect (grade symbol)>
++ (CI < 0.60: ++)

$$$$
>  <smiles_notation>
Cc1cc(O)cc2oc(=O)c3c(O)cc(O)cc3c12

>  <Combined Cytotoxic Effect (grade symbol)>
+ (0.60 < CI < 0.80: +)

$$$$

Consider the record given below.
Qu. What value of Combined Cytotoxic Effect (grade symbol) has been recorded for this entry: `C[C@H]1CCC[C@H](O)CCCCCc2cc(O)cc(O)c2C(=O)O1`
Ans. ++ (CI < 0.60: ++)

----------
Assay: in vitro
Conditions: human, Decrease in cellular ATP levels (% of control), individual effect, HeLa, 24 h, single compound at 10 μM
assay_readout: cytotoxicity at 24 h, 10 µM
Number plus unit, in that order.

Qu. Query: cytotoxicity at 24 h, 10 µM; subject: `Cc1cc(O)cc2oc(=O)c3c(O)cc(O)cc3c12`
Ans. 13.6%

----------
Test system: HeLa cells
Assay: in vitro
Settings: HeLa, 24 h, 30 µM (higher toxic concentration) of the compound + 20 µM ZEN

>  <smiles_notation>
C[C@H]1CCC[C@@H](O)CCC/C=C/c2cc(O)cc(O)c2C(=O)O1

>  <Combined cytotoxic effect in Figure 3B>
Add

$$$$
>  <smiles_notation>
C[C@H]1CCC[C@H](O)CCCCCc2cc(O)cc(O)c2C(=O)O1

>  <Combined cytotoxic effect in Figure 3B>
Syn

$$$$
>  <smiles_notation>
C[C@H]1CCC[C@H](O)CCC/C=C/c2cc(O)cc(O)c2C(=O)O1

>  <Combined cytotoxic effect in Figure 3B>
Add

$$$$
>  <smiles_notation>
C[C@H]1CCC[C@@H](O)CCCCCc2cc(O)cc(O)c2C(=O)O1

>  <Combined cytotoxic effect in Figure 3B>
Syn

$$$$

----------
Assay: in vitro
Details: human
Label key: y means cytotoxicity at 30 µM under 30%; n means cytotoxicity at 30 µM of 30% or more.

>  <smiles_notation>
C[C@H]1CCC[C@H](O)CCCCCc2cc(O)cc(O)c2C(=O)O1

>  <assigned_class>
y

$$$$

Below: the item to evaluate.
Qu. Is the reported cytotoxicity at 30 µM for `C[C@H]1CCC[C@@H](O)CCC/C=C/c2cc(O)cc(O)c2C(=O)O1` strictly below 30%?
Ans. n

----------
Assay: in vitro
Settings: human, Decrease in cellular ATP levels (% of control), individual effect, HeLa, 24 h, single compound at 20 μM
assay_readout: cytotoxicity at 24 h, 20 µM (%)
# number only, unit % dropped from output

Qu. Give the measured cytotoxicity at 24 h, 20 µM of C[C@H]1CCCC(=O)CCC/C=C/c2cc(O)cc(O)c2C(=O)O1 [ZEN, zearalenone] .
Ans. 30.1

----------
Each entry below carries its recorded CI Value (combination index).
Target: hERα (Saccharomyces cerevisiae BLYES strain) (Homo sapiens)
Construct: expressed in transfected cells; host or cells: Saccharomyces cerevisiae BLYES strain (hERα gene integrated in the chromosome)
Assay: cell-based
Type: cell-based
Settings: BLYES, + 6.28 × 10^−2 µM ZEN; higher concentration (µM): α-ZEL 1.25 × 10^−2, β-ZEL 2.43, ZAN 4.99 × 10^−2, α-ZAL 2.48 × 10^−2, β-ZAL 2.48 × 10^−1, GEN 1.48
Just the number, please, no unit after it.

>  <smiles_notation>
C[C@H]1CCC[C@H](O)CCC/C=C/c2cc(O)cc(O)c2C(=O)O1

>  <experimental_target>
hERα (Saccharomyces cerevisiae BLYES strain) (Homo sapiens)

>  <assay_readout>
CI Value (combination index)

>  <reported>
0.41

$$$$
>  <smiles_notation>
C[C@H]1CCC[C@@H](O)CCC/C=C/c2cc(O)cc(O)c2C(=O)O1

>  <experimental_target>
hERα (Saccharomyces cerevisiae BLYES strain) (Homo sapiens)

>  <assay_readout>
CI Value (combination index)

>  <reported>
0.95

$$$$
>  <smiles_notation>
C[C@H]1CCC[C@H](O)CCCCCc2cc(O)cc(O)c2C(=O)O1

>  <experimental_target>
hERα (Saccharomyces cerevisiae BLYES strain) (Homo sapiens)

>  <assay_readout>
CI Value (combination index)

>  <reported>
1.16

$$$$
>  <smiles_notation>
C[C@H]1CCC[C@@H](O)CCCCCc2cc(O)cc(O)c2C(=O)O1

>  <experimental_target>
hERα (Saccharomyces cerevisiae BLYES strain) (Homo sapiens)

>  <assay_readout>
CI Value (combination index)

>  <reported>
1.56

$$$$

Qu. Can you look up the measured CI Value (combination index) of `C[C@H]1CCCC(=O)CCCCCc2cc(O)cc(O)c2C(=O)O1` for me?
Ans. 0.62

----------
Target: hERα (Saccharomyces cerevisiae BLYES strain) (Homo sapiens, UniProt P03372)
Sequence (P03372 whole entry): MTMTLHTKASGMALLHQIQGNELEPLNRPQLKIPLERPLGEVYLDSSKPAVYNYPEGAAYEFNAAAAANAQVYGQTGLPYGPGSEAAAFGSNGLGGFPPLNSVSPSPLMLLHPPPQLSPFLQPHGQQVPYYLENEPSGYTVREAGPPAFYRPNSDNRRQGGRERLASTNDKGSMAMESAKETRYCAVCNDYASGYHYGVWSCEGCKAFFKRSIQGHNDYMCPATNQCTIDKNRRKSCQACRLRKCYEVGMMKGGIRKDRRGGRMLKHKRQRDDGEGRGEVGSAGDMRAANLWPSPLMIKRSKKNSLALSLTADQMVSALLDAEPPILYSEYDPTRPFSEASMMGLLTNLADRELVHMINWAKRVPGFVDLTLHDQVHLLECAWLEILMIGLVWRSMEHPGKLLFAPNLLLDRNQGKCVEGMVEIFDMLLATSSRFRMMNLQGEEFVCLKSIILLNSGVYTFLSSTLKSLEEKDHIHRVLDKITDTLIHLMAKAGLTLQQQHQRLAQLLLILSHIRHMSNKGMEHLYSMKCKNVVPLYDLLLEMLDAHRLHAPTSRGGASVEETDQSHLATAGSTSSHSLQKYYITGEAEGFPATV
Assay: cell-based
Recorded pEC50 for the following compounds
Please express pEC50 as -log10 of the molar concentration.

Some solved entries appear below for comparison.
>  <smiles_notation>
C[C@H]1CCCC(=O)CCC/C=C/c2cc(O)cc(O)c2C(=O)O1

>  <experimental_target>
hERα (Saccharomyces cerevisiae BLYES strain) (Homo sapiens, UniProt P03372)

>  <pEC50>
6.34

$$$$
>  <smiles_notation>
C[C@H]1CCC[C@H](O)CCC/C=C/c2cc(O)cc(O)c2C(=O)O1

>  <experimental_target>
hERα (Saccharomyces cerevisiae BLYES strain) (Homo sapiens, UniProt P03372)

>  <pEC50>
7.72

$$$$

Qu. pEC50 of `C[C@H]1CCC[C@@H](O)CCCCCc2cc(O)cc(O)c2C(=O)O1` on hERα (Saccharomyces cerevisiae BLYES strain) (Homo sapiens, UniProt P03372)?
Ans. 6.74

Qu. Quick one: `C[C@H]1CCCC(=O)CCCCCc2cc(O)cc(O)c2C(=O)O1`
Ans. 7.32

Qu. Note, next up: `C[C@H]1CCC[C@@H](O)CCC/C=C/c2cc(O)cc(O)c2C(=O)O1`
Ans. 5.62

Qu. Now give it for `C[C@H]1CCC[C@H](O)CCCCCc2cc(O)cc(O)c2C(=O)O1` too.
Ans. 7.72
